endpoint: melting point

>>> result("CC1(C)CC2(CC(C)(C)N1)NC(=O)N(CC(COc1ccc(C(C)(C)c3ccc(OCC(CN4C(=O)NC5(CC(C)(C)NC(C)(C)C5)C4=O)OC(=O)Nc4ccccc4)cc3)cc1)OC(=O)Nc1ccccc1)C2=O (stereo not drawn)")
"202 to 207 °C"
>>> result("CCCCCCCC/C=C\\CCCCCCCCN")
"15 to 22 °C"
>>> result("FC(F)(F)C1(CNC2=NCCN2)CCCCC1")
"154 to 157 °C"
>>> result("CCC(=O)OC1(C(=O)C(O)OC(=O)C(NC(=O)C2CCCN2C(=O)C(C)NC(=O)C(C)NC(=O)N(c2ccccc2)c2ccccc2)C(C)C)CCC2C3CC(C)C4=CC(=O)C=CC4(C)C3C(O)CC21C (stereo not drawn)")
"150 to 152 °C"
>>> result("CC(C)[C@H](NC(=O)N(C)Cc1ccccn1)C(=O)N[C@@H](Cc1ccccc1)[C@H](O)[C@@H](O)[C@H](Cc1ccccc1)NC(=O)[C@@H](NC(=O)N(C)Cc1csc(N)n1)C(C)C")
"97 to 99 °C"
>>> result("CN1CCCC1=NC(=O)Nc1ccc(OCc2ccccc2)cc1")
"140 to 142 °C"
>>> result("Oc1c(Br)c(Br)c(-c2c(Br)c(Br)c(O)c(Br)c2Br)c(Br)c1Br")
"282 °C"
>>> result("CC(C)(C)OC(=O)N1CCN(c2ccc(C(=O)O)cc2)CC1")
"195 °C"
